- Tested Target: Protein-arginine deiminase type-2 (Homo sapiens)
- Assay Protocol: PAD1-4 inhibition by competitive ABPP, late-stage follow-up, orthogonal assay for PAD4 inhibitor project, biochemical, fluorescence, gel-based ABPP, HTS hits (AID 588487)
- Particulars: recombinant PAD1-4, gel-based ABPP, RFA probe fluorescence; PAD2; at 10 µM; active compounds read high
Catalogue of inhibition values
Express the result in % but write the number alone.

>>> reported("CN(C)CCCNc1cn[nH]c(=O)c1Cl")
61
>>> reported("Cc1nn(-c2ccccc2)c(C)c1NC(=O)COc1ccc(Cl)cc1Cl")
29

If you can, please state the reported inhibition value of `Cn1c(=O)c2c(ncn2CC(=O)Nc2nc(-c3ccccc3Cl)cs2)n(C)c1=O` .
25

Given the molecule `COc1ccc(/C=N/Nc2nncn2N)cc1Br` , what is its reported inhibition?
44

Consider the molecule shown here: `CCN(CC)S(=O)(=O)c1ccc(N=NC2=C(O)CCCC2=O)cc1` What is its recorded inhibition?
63

Returns the measured inhibition for the input molecule. Input: `CCN(CC)S(=O)(=O)c1ccc(C)c(NS(=O)(=O)c2cc(/C=C/C(=O)O)cc(OC)c2OC)c1`
40

I would be grateful if you could share the reported inhibition for `N#CCCn1[nH]c(-c2ccccc2)cc1=O` .
29

====

- Tested Target: Protein-arginine deiminase type-3 (Homo sapiens)
- Assay Protocol: PAD1-4 inhibition by competitive ABPP, late-stage follow-up, orthogonal assay for PAD4 inhibitor project, biochemical, fluorescence, gel-based ABPP, HTS hits (AID 588487)
- Particulars: recombinant PAD1-4, gel-based ABPP, RFA probe fluorescence; PAD3; at 10 µM; active compounds read high
Outcome label depends on inhibition relative to 20%: at/above gives Yes, below gives No.

Use these answered entries as a reference point.
>>> class("COc1cccc2cc(C(=O)NC3CC(C)(C)NC(C)(C)C3)c(=O)oc12")
"Yes"
>>> class("O=C(CN1CCCCCC1)Nc1ccc(Br)cc1Br")
"Yes"
>>> class("Cn1c(SCC(=O)N/N=C/C=C/c2ccco2)nc2ccccc21")
"No"
>>> class("Cn1c(N)c(C(=O)COC(=O)COc2ccc(Br)cc2)c(=O)n(C)c1=O")
"No"

Alright, here's another compound for you.
Would you say `O=c1cc(-c2ccc(F)cc2)[nH][nH]1` shows inhibition at minimum 20%?
No

====

- Tested Target: Protein-arginine deiminase type-1 (Homo sapiens) (UniProt Q9ULC6)
- Sequence (Q9ULC6 whole entry, looked up): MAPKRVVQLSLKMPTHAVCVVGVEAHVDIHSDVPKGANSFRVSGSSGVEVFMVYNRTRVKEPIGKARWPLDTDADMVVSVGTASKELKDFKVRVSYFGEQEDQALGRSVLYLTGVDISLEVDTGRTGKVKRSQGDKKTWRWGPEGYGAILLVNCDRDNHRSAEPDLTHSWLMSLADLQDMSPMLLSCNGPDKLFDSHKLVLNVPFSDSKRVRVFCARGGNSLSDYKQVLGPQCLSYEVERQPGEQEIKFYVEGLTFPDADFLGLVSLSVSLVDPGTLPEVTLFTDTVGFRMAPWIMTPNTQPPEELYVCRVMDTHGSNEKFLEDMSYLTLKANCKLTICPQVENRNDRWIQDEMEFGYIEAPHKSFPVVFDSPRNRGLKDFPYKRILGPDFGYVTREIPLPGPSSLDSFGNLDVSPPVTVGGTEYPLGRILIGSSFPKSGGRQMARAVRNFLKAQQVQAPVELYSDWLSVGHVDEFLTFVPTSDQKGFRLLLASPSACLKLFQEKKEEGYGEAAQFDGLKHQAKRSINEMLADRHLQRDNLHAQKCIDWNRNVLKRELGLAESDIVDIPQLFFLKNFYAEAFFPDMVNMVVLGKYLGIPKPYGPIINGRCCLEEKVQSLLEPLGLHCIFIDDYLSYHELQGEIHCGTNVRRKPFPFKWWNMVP
- Assay Protocol: PAD1-4 inhibition by competitive ABPP, late-stage follow-up, orthogonal assay for PAD4 inhibitor project, biochemical, fluorescence, gel-based ABPP, HTS hits (AID 588487)
- Particulars: recombinant PAD1-4, gel-based ABPP, RFA probe fluorescence; PAD1; at 10 µM; active compounds read high
Metric Name: inhibition (%)
Give the quantity in %, number only.

Worked set:
>>> reported("CN(C)CCN(Cc1ccccc1)c1ccccn1")
13
>>> reported("CC(=O)Nc1c2c3c(cccc3n(C)c1=O)C(=O)c1ccccc1-2")
-5
>>> reported("O=C(NC1CCCCC1)C(c1cccs1)N(CCCN1CCOCC1)C(=O)c1ccc(-c2ccccc2)[nH]1 (stereo unspecified)")
-42
>>> reported("Cc1c(NC(=O)CSc2nccn2C)c(=O)n(-c2ccccc2)n1C")
46
>>> reported("O=C1CC(c2cccnc2)=NN1c1ccccc1")
37

Quick one: inhibition of `CC(=O)C1=C(c2ccccc2)N(C(C)=O)n2c(C)nnc2S1` ?
42

====

- Tested Target: Protein-arginine deiminase type-4 (Homo sapiens) (UniProt Q9UM07)
- Sequence (Q9UM07 whole entry, looked up): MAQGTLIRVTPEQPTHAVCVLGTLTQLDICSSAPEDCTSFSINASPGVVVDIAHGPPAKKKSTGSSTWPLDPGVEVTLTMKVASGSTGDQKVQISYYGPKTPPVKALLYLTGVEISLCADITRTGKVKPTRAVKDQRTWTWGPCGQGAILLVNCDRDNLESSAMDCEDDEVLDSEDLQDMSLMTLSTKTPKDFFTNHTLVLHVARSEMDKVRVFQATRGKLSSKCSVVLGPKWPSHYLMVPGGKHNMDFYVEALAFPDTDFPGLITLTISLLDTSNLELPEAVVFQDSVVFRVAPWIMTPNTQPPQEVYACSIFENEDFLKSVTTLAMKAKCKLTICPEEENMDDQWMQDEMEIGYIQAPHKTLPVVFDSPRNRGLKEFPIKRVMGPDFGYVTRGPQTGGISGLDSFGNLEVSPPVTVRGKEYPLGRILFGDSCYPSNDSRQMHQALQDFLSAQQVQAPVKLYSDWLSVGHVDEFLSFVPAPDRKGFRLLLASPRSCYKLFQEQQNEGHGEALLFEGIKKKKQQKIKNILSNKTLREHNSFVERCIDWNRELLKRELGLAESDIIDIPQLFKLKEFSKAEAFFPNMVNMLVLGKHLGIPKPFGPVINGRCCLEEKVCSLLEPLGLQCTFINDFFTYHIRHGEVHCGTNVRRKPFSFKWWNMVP
- Assay Protocol: PAD1-4 inhibition by competitive ABPP, late-stage follow-up, orthogonal assay for PAD4 inhibitor project, biochemical, fluorescence, gel-based ABPP, HTS hits (AID 588487)
- Particulars: recombinant PAD1-4, gel-based ABPP, RFA probe fluorescence; PAD4; at 10 µM
Activity calls are given as the source filed them.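 The calls were made as follows: active = inhibition of at least 50% against any of four protein arginine deiminase enzymes; inactive = the rest.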
Pick from Yes = active, No = inactive when you respond.

Below, 5 compounds whose answers are already recorded.
>>> class("Cn1c(SCC(=O)Nc2ccc(Br)cn2)nnc1C1CC1")
"No"
>>> class("O=C(O)c1ccc(S(=O)(=O)c2ccc3c(c2)C(=O)N(c2ccc(O)cc2)C3=O)cc1")
"No"
>>> class("COc1cccc(NC(=O)CN(C)C(=O)C23CC4CC(CC(Cl)(C4)C2)C3)c1")
"Yes"
>>> class("COc1ccc(OC)c(C2C(C#N)=C(N)Oc3c2c(C)nn3-c2ccc(C)cc2)c1 (configuration not stated)")
"No"
>>> class("COc1cccc(C2=CC(c3ccc(OC)c(OC)c3)NC(=S)N2)c1 (configuration not stated)")
"No"

For `COc1ccc(/C=N/Nc2nncn2N)cc1Br` , which call appears in the assay record?
Yes

Record lookup: outcome of this test for `CCN(CC)S(=O)(=O)c1ccc(N=NC2=C(O)CCCC2=O)cc1` ?
Yes

What call does the record list for `O=C(COc1ccccc1F)N1CCN(S(=O)(=O)/C=C/c2ccccc2)CC1` ?
No

Write down the call the test reported for this compound. Item: CN(C)C(CNC(=O)c1cc2ccccc2o1)c1ccco1 (configuration not stated)
No

Please let me know the test result on file for `Cc1ccc(CNC(=O)c2ccc(C)c(S(=O)(=O)N3CCCCC3)c2)cc1` .
No

Can you look up the reported call for `CCOc1nc(Nc2ccc(OC)cc2OC)nc(OCC)n1` for me?
No

Please share the test call associated with `COc1ccc(CCNC(=O)c2c[nH]c3ccc(F)cc3c2=O)cc1OC` .
No

# outcome recorded in this test, key = `N#CCCn1[nH]c(-c2ccccc2)cc1=O`
No

In this assay, the call recorded for `Cc1cc(C)cc(NC(=S)/C(=C(\[O-])c2ccc(Cl)s2)[n+]2cccc(C)c2)c1` was what?
No

====

- Tested Target: UniProtKB Q9ULW8
- Assay Protocol: PAD1-4 inhibition by competitive ABPP, late-stage follow-up, orthogonal assay for PAD4 inhibitor project, biochemical, fluorescence, gel-based ABPP, HTS hits (AID 588487)
- Particulars: recombinant PAD1-4, gel-based ABPP, RFA probe fluorescence; PAD3; at 10 µM; active compounds read high
Metric Name: inhibition (%)
The response must be a number in % with no trailing unit.

Examples with answers:
>>> reported("N#CCCN(C(=O)Cn1nc(C(=O)O)c2ccccc2c1=O)c1ccccc1")
29
>>> reported("O=C(O)c1[nH]c2ccccc2c1-c1ccccc1")
10
>>> reported("CCOc1nc(Nc2ccc(OC)cc2OC)nc(OCC)n1")
46

Write down the reported inhibition of `COc1ccc(S(=O)(=O)Nc2ccccc2C)cc1` , test system: UniProtKB Q9ULW8.
-13

Missing value: inhibition, UniProtKB Q9ULW8, entry COc1ccc(C2=CC(c3ccc(OC)c(OC)c3)NC(=S)N2)cc1 (stereo unspecified) . Fill in?
36

====

- Tested Target: Protein-arginine deiminase type-4 (Homo sapiens)
- Assay Protocol: PAD1-4 inhibition by competitive ABPP, late-stage follow-up, orthogonal assay for PAD4 inhibitor project, biochemical, fluorescence, gel-based ABPP, HTS hits (AID 588487)
- Particulars: recombinant PAD1-4, gel-based ABPP, RFA probe fluorescence; PAD4; at 10 µM; active compounds read high
Below, each entry is listed alongside its reported inhibition.
# value in %; strip the unit string

Below, each entry is followed by its recorded inhibition result.
>>> reported("O=c1cc(-c2ccc(Br)cc2)[nH][nH]1")
51
>>> reported("Cc1oc2c(C)c(O)ccc2c(=O)c1-c1ccc2ccccc2n1")
1
>>> reported("COc1ccc(-c2nc(C(=O)NCCCN3CCOCC3)cc3c2[nH]c2ccccc23)cc1OC")
10
>>> reported("COc1ccc(C2C(C#N)=C(N)N(N(C)C)C3=C2C(=O)CCC3)cc1 (stereo not drawn)")
55
>>> reported("Cc1nn(-c2ccccc2)c(C)c1NC(=O)COc1ccc(Cl)cc1Cl")
12
>>> reported("Cn1c(=O)c2c(ncn2CC(=O)Nc2nc(-c3ccccc3Cl)cs2)n(C)c1=O")
80
>>> reported("COc1cccc2cc(C(=O)NC3CC(C)(C)NC(C)(C)C3)c(=O)oc12")
31
>>> reported("Cc1cc(C)c(C)c(S(=O)(=O)N2CCC(C(=O)N3CCCC3)CC2)c1C")
39
>>> reported("O=C(O)c1[nH]c2ccccc2c1-c1ccccc1")
40
>>> reported("O=C(O)CCC(=O)Nc1ccc(SSc2ccc(NC(=O)CCC(=O)O)cc2)cc1")
45

With those in mind, consider the next molecule.
Protein-arginine deiminase type-4 (Homo sapiens) / inhibition / `Cn1c(N)c(C(=O)COC(=O)COc2ccc(Br)cc2)c(=O)n(C)c1=O` : value?
20

====

- Tested Target: Protein-arginine deiminase type-3 (Homo sapiens) (UniProt Q9ULW8)
- Sequence (Q9ULW8 whole entry, looked up): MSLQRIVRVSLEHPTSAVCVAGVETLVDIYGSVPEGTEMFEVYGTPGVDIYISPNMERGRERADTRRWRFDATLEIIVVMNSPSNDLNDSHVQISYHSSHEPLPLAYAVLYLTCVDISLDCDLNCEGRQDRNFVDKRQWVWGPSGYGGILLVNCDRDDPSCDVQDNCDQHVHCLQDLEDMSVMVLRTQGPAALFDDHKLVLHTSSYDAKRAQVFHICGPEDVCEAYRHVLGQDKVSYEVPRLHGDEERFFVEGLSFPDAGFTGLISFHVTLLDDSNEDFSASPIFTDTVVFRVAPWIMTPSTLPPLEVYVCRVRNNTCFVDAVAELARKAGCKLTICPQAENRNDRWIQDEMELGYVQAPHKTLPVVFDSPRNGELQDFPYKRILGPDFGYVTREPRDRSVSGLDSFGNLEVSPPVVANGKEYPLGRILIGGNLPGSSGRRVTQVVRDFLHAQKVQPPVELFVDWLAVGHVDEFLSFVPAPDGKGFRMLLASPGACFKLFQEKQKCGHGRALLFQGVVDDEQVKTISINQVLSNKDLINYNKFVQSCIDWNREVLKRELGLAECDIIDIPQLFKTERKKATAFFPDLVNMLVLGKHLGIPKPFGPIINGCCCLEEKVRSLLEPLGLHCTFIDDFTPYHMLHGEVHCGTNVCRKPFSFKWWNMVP
- Assay Protocol: PAD1-4 inhibition by competitive ABPP, late-stage follow-up, orthogonal assay for PAD4 inhibitor project, biochemical, fluorescence, gel-based ABPP, HTS hits (AID 588487)
- Particulars: recombinant PAD1-4, gel-based ABPP, RFA probe fluorescence; PAD3; at 10 µM
Activity calls are given as the source filed them.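 The calls were made as follows: active = inhibition of at least 50% against any of four protein arginine deiminase enzymes; inactive = the rest.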
Select the matching outcome among active, inactive

>>> class("COc1cccc(NC(=O)CN(C)C(=O)C23CC4CC(CC(Cl)(C4)C2)C3)c1")
"inactive"
>>> class("O=[N+]([O-])c1ccc2nc(-c3ccccc3)n(OCc3ccc(Cl)cc3)c2c1")
"inactive"
>>> class("O=C(COc1ccccc1F)N1CCN(S(=O)(=O)/C=C/c2ccccc2)CC1")
"inactive"
>>> class("O=C(O)CCC(=O)c1ccc(-c2ccccc2)cc1")
"inactive"
>>> class("Cc1c(NC(=O)CSc2nccn2C)c(=O)n(-c2ccccc2)n1C")
"inactive"

Can you look up the reported call for COc1ccc(C2C(C#N)=C(N)N(N(C)C)C3=C2C(=O)CCC3)cc1 (stereo not drawn) for me?
inactive

Which result was noted for this molecule in the test: `CCOc1ccccc1C(=O)NCC(=O)NCCCc1ccccc1`
inactive

Outcome? `COc1ccc(/C=N/Nc2nncn2N)cc1Br`
inactive
